Numbers sourced from patent US9006450B2.

# Tested system: human ACC2 (Homo sapiens, UniProt O00763)
# Construct: made in house; host or cells: insect cells (baculoviral expression system)
# Sequence (O00763 129-2458 limits assumed): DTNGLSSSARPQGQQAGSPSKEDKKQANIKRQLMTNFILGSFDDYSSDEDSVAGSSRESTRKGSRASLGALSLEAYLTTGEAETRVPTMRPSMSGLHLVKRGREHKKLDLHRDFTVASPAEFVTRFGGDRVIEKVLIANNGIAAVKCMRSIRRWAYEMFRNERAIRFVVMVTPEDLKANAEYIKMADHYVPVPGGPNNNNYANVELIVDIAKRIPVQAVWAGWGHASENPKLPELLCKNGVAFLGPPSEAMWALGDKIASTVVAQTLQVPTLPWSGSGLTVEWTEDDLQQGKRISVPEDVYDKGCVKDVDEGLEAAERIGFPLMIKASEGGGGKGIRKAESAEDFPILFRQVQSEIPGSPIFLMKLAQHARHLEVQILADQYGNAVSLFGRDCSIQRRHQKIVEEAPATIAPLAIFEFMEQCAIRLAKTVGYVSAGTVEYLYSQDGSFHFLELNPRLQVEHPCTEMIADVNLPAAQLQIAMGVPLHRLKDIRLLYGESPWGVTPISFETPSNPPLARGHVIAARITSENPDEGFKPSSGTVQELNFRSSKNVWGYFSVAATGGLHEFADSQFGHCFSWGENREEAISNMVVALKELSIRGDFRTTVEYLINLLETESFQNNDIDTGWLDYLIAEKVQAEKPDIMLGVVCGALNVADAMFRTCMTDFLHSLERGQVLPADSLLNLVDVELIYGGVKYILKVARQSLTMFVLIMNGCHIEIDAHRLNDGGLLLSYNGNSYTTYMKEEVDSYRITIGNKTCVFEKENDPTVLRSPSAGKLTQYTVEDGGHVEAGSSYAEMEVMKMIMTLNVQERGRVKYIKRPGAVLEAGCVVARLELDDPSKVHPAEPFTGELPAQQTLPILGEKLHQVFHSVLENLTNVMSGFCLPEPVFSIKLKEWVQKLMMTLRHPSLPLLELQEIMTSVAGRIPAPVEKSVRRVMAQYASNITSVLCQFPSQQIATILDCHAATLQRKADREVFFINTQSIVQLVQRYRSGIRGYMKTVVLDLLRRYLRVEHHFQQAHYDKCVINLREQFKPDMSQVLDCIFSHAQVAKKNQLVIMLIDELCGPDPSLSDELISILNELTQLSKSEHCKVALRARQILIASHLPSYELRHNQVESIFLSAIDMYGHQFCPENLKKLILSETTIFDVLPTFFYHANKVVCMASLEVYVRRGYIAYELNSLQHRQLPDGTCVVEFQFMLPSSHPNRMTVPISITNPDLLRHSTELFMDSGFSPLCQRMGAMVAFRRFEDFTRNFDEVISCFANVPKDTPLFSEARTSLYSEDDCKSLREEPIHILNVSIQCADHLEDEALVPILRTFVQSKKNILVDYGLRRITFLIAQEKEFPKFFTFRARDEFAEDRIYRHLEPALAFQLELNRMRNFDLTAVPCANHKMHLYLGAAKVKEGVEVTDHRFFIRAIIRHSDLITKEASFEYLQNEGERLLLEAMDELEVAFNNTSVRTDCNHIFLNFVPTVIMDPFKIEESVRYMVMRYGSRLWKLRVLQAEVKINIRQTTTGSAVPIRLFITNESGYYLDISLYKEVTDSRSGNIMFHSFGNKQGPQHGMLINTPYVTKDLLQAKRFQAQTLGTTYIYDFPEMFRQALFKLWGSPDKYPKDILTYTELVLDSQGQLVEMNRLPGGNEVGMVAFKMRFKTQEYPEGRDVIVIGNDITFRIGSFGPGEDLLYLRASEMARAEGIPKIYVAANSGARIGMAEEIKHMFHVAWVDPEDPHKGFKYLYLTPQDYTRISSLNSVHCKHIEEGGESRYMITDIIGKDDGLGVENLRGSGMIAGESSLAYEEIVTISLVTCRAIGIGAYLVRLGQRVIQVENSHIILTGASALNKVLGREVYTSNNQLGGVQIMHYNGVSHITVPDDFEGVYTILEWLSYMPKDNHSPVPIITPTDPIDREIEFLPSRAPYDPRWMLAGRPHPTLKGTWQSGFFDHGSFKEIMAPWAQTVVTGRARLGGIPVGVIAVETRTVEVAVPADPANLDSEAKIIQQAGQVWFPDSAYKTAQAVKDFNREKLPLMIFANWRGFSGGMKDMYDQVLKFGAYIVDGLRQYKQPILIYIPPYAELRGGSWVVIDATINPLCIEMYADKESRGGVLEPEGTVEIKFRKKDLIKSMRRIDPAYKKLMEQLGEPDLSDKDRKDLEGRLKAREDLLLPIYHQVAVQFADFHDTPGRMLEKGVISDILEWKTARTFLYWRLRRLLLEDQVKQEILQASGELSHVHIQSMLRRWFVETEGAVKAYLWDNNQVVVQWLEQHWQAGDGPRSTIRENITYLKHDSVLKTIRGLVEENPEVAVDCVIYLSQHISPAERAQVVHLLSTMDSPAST
# Assay summary: ACC2 assay, spectrophotometric 384 well assay (NADH-linked, coupled lactate dehydrogenase/pyruvate kinase)
# Assay type: biochemical
# Particulars: ACC2 assay, hACC2 construct lacking 128 N-terminal amino acids, 25° C., 340 nm; read-out: IC50
pIC50: −log10 of the molar value.
A collection of compounds and their measured pIC50

{"columns": ["Molecule smiles", "pIC50"],
 "data": [
  ["CC(=O)N[C@@H](C)c1ccc(C2CCN(c3ccnc(N(C)CC4CC4)n3)CC2)cc1", 6.64],
  ["CCc1ccc(-c2cnc(N3CCC(c4ccc([C@H](C)NC(C)=O)cc4)CC3)nc2)cc1", 7.00],
  ["CC(C)Oc1cccc(N2CCC(c3ccc([C@H](C)NC(=O)N(C)C)cc3)CC2)c1", 6.55],
  ["CCOc1ccc(-c2nccc(N3CCC(c4ccc([C@H](C)NC(C)=O)cc4)CC3)n2)cc1", 5.92]
]}

---

# Tested system: human ACC2 (Homo sapiens)
# Construct: made in house; host or cells: insect cells (baculoviral expression system)
# Assay summary: ACC2 assay, spectrophotometric 384 well assay (NADH-linked, coupled lactate dehydrogenase/pyruvate kinase)
# Format: biochemical
# Particulars: ACC2 assay, hACC2 construct lacking 128 N-terminal amino acids, 25° C., 340 nm; read-out: IC50
Please map values of IC50 to classes as shown: lower level (below 200 nM), middle level (200 nM to below 1000 nM), upper level (1000 nM or more)

{"columns": ["Compound", "Assigned category"],
 "data": [
  ["CC(=O)N[C@@H](C)c1ccc(C2CCN(c3ccc(OCC4CC4)c(C)c3)CC2)cc1", "middle level"],
  ["CC(=O)N[C@@H](C)c1ccc(C2CCN(c3ccc(OC4CCCC4)c(C)c3)CC2)cc1", "middle level"],
  ["CC(=O)N[C@@H](C)c1ccc(C2CCN(c3ncc(-c4ccc(Cl)cc4)cn3)CC2)cc1", "middle level"],
  ["COc1ccc(-c2cnc(N3CCC(c4ccc([C@H](C)NC(C)=O)cc4)CC3)nc2)c(C(F)(F)F)c1", "middle level"],
  ["C/C=C/CCOc1ccc(N2CCC(c3ccc([C@H](C)NC(C)=O)cc3)CC2)cc1", "lower level"],
  ["CC(=O)N[C@@H](C)c1ccc(C2CCN(c3ncc(-c4ccc(Cl)c(C)c4)cn3)CC2)cc1", "lower level"],
  ["COC(=O)Cc1ccc(N2CCC(c3ccc([C@H](C)NC(C)=O)cc3)CC2)cc1", "upper level"],
  ["CCNc1ccc(N2CCC(c3ccc([C@H](C)NC(C)=O)cc3)CC2)cc1", "upper level"],
  ["CCOc1ccc(N2CCC(c3ccc([C@H](C)NS(C)(=O)=O)cc3)CC2)cc1", "upper level"],
  ["CCOc1ccc(N2CCC(c3ccc([C@H](C)NC(=O)N(C)CC)cc3)CC2)cc1", "middle level"],
  ["CC(=O)N[C@@H](C)c1ccc(C2CCN(c3ccc(OCC4(CC#N)CC4)cc3)CC2)cc1", "middle level"],
  ["C[C@H](NC(=O)C1CC1)c1ccc(C2CCN(c3ncnc(N(C)CC4CC4)c3F)CC2)cc1", "middle level"],
  ["CC(=O)N[C@@H](C)c1ccc(C2CCN(c3cc(I)ccn3)CC2)cc1", "upper level"],
  ["CC(=O)N[C@@H](C)c1ccc(C2CCN(c3ccc(OCC4CC4)cc3C#N)CC2)cc1", "lower level"],
  ["CC(=O)N[C@@H](C)c1ccc(C2CCN(c3cc(NCC4CC4)ncn3)CC2)cc1", "upper level"],
  ["CC(=O)N[C@@H](C)c1ccc(C2CCN(c3ccc(C#N)cn3)CC2)cc1", "upper level"],
  ["COc1ccc(-c2cnc(N3CCC(c4ccc([C@H](C)NC(C)=O)cc4)CC3)nc2)c(F)c1", "lower level"],
  ["CC(=O)N[C@@H](C)c1ccc(C2CCN(c3ncc(-c4ccc(F)c(C#N)c4)cn3)CC2)cc1", "lower level"],
  ["CCC(C)Oc1ccc(N2CCC(c3ccc([C@H](C)NC(C)=O)cc3)CC2)cc1F (some centres unmarked)", "middle level"],
  ["CCC(C)Oc1ccc(N2CCC(c3ccc([C@H](C)NC(=O)OC)cc3)CC2)cc1 (some centres unmarked) [Example 1.130]", "lower level"],
  ["CCC(CC)Oc1ccc(N2CCC(c3ccc([C@H](C)NC(C)=O)cc3)CC2)cc1", "lower level"],
  ["C[C@H](NC(=O)N(C)C)c1ccc(C2CCN(c3ncc(-c4ccoc4)cn3)CC2)cc1", "middle level"],
  ["CC(=O)N[C@@H](C)c1ccc(C2CCN(c3ccc(OCCn4ccnc4)cc3)CC2)cc1", "upper level"],
  ["CCOc1ccc(N2CCC(c3ccc([C@H](C)NC(=O)CN(C)C)cc3)CC2)cc1", "upper level"],
  ["CCOc1ccc(N2CCC(c3ccc([C@H](C)NC(=O)c4ccncc4)cc3)CC2)cc1", "upper level"],
  ["CCOc1ccc(N2CCC(c3ccc([C@H](C)NC(=O)c4cncs4)cc3)CC2)cc1", "middle level"],
  ["CC(=O)N[C@@H](C)c1ccc(C2CCN(c3cc(NCC(C)C)ncn3)CC2)cc1", "upper level"],
  ["CCOc1ccc(N2CCC(c3ccc([C@H](C)NC(C)=O)cc3)CC2)cn1", "middle level"],
  ["CC(=O)N[C@@H](C)c1ccc(C2CCN(c3cccc(OCc4cc(C)on4)c3)CC2)cc1", "lower level"],
  ["CC(=O)N[C@@H](C)c1ccc(C2CCN(c3ncc(-c4ccc5[nH]ccc5c4)cn3)CC2)cc1", "lower level"]
]}
